A short record of IC50 observed with α7-subtype of nicotinic receptors (Rattus norvegicus, UniProt Q05941) follows.
Sequence (Q05941 23-502): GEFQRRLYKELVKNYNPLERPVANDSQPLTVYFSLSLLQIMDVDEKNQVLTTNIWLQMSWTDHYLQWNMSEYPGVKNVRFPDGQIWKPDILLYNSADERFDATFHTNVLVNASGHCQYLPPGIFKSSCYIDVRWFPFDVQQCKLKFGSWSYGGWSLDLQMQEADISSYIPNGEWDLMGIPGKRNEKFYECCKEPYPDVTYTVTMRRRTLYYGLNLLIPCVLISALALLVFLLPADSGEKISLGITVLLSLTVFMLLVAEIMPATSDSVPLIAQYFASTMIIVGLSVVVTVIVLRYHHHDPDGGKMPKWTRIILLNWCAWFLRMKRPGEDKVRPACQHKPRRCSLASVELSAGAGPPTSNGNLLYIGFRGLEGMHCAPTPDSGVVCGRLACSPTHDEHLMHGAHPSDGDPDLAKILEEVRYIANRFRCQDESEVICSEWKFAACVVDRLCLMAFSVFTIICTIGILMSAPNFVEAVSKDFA

Dear reader, for each entry below, please note its IC50.
1. O=C(O)/C=C/C(=O)O.c1csc(-c2nnc(N3CCN4CCC3CC4)o2)c1 [Compound D5]
2. c1ccc(-c2nnc(N3CCN4CCC3CC4)s2)cc1 [Compound 1A]
3. c1ccc(-c2nnc(N3CCN4CCC3CC4)o2)cc1 [Compound D1]

Result:
["22 nM", "6.7 nM", "5.8 nM"]

----------
measure-name: melting point

- smiles-data: "O=C(O)/C=C/C(=O)O.c1coc(-c2nnc(N3CCN4CCC3CC4)o2)c1"
  melting point: "175 °C"
- smiles-data: "O=C(O)/C=C/C(=O)O.c1csc(-c2nnc(N3CCN4CCC3CC4)o2)c1"
  melting point: "161.8 to 162.7 °C"
- smiles-data: "O=C(O)/C=C/C(=O)O.c1ccc(-c2ccc(-c3nnc(N4CCN5CCC4CC5)o3)cc2)cc1"
  melting point: "238 to 239 °C"
- smiles-data: "O=C(O)/C=C/C(=O)O.c1cc(-c2nnc(N3CCN4CCC3CC4)o2)ccn1"
  melting point: "165.9 to 166.8 °C"

For each of the items listed, what is its melting point?
1. O=C(O)/C=C/C(=O)O.c1ccc2cc(-c3nnc(N4CCN5CCC4CC5)o3)ccc2c1
2. O=C(O)/C=C/C(=O)O.c1cncc(-c2nnc(N3CCN4CCC3CC4)o2)c1
3. COc1ccc(-c2nnc(N3CCN4CCC3CC4)o2)cc1.O=C(O)/C=C/C(=O)O
4. COc1cccc(-c2nnc(N3CCN4CCC3CC4)o2)c1.O=C(O)/C=C/C(=O)O
5. Clc1ccc(-c2nnc(N3CCN4CCC3CC4)o2)cc1.O=C(O)/C=C/C(=O)O

Result:
1. 194.6 to 195.7 °C
2. 176.8 to 177.5 °C
3. 190.1 to 191.2 °C
4. 126 to 164 °C
5. 184.3 to 185.8 °C
